Below, each entry is listed with its recorded CRF2R EC50.
target: T1, CRF2R
T1 sequence (Q13324 whole entry, species assumed, looked up): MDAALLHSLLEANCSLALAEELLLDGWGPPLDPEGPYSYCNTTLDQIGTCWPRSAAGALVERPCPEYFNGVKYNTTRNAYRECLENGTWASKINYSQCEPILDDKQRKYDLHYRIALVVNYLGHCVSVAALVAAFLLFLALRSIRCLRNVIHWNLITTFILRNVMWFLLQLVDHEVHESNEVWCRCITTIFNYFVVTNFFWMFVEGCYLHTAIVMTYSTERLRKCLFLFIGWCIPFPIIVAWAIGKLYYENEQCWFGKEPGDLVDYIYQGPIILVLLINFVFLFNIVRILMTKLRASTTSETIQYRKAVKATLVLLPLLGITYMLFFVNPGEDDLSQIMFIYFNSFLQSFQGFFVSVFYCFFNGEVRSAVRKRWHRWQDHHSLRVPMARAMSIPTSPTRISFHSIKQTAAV
test.details: cell-based or functional assay
Ends that are not written are not given here.
Return type: number; implicit unit nM.

Examples from the recorded data:
[[record]]
binder = "NDDPPISIDLPLYLLRNMIEMARIENEREQAGLNAKYLAEV-NH2 [SEQ ID NO 271]"
parameter_measured = "CRF2R EC50"
meas_value = 48.1

[[record]]
binder = "ZGPPISIDLPQALLRKMIEIEKQEKEKQQAANNRLLLDTI (C-terminal amide) [SEQ ID NO 302]"
parameter_measured = "CRF2R EC50"
meas_value = 36.2

[[record]]
binder = "ZGPPISIDLPFYLLRKMIEIEKQEKEKQQAANNALLLATI (C-terminal amide) [SEQ ID NO 231]"
parameter_measured = "CRF2R EC50"
meas_value = 5.9


In: Please supply the value of reported CRF2R EC50 for the item ZGPPISIDLPIILLRKMIEIEKQEKEKQQAANNARLLARI (C-terminal amide) [SEQ ID NO 290]
Out: 100

In: Please supply the value of reported CRF2R EC50 for the item ZGPPISIDLPHFLLRKMIEIEKQEKEKQQAANNRLLLDTI (C-terminal amide) [SEQ ID NO 219]
Out: 7.8

In: Please supply the value of reported CRF2R EC50 for the item ZGPPISIDLPTYLLRKMIEIEKQEKEKQQAANNALLLATI (C-terminal amide) [SEQ ID NO 233]
Out: 46.1

In: Please supply the value of reported CRF2R EC50 for the item ZGPPISIDLPFQLLRKTIEIEKQEKEKQQATTNARLLDRV (C-terminal amide) [SEQ ID NO 321]
Out: 19.6
